assay: SK-BR-3 cell growth inhibitors, pilot screen, 24 h, human (AID 572); conditions: SK-BR-3 viability, CellTiter-Glo luminescence, at 10 µM, hits give low values;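 also: compound exposure lasted between 18 and 24 h rather than exactly 24 h; 100% = carrier-treated control wells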
ASSAY_ENDPOINT: viability (%)
Express it in %; write the number only.

INSERT INTO measurements (compound, assay_endpoint, recorded_measurement) VALUES
  ('CCC1(C)Cc2c(C#N)c(N)n(-c3ccccc3)c(=O)c2CO1 (stereo not drawn)', 'viability', 100),
  ('O=C(O)c1oc2ccccc2c1-n1cccc1', 'viability', 102),
  ('COCCn1c(=NC(=O)CSC(C)=O)sc2cc(F)ccc21', 'viability', 85);

CC(=O)Nc1ccc(S(=O)(=O)NCc2cn3c(C)csc3n2)cc1 has a reported viability of 116

CCOC(=O)c1oc2ccccc2c1CSc1nnnn1-c1ccc(C)cc1 has a reported viability of 94.5

Cc1cc(NC(=O)Cc2cn3ccsc3n2)n(-c2ccccc2)n1 has a reported viability of 91

CCOC(=O)c1[nH]c(C)c(C(=O)NCc2ccccn2)c1C has a reported viability of 134

CC(C)C(NC(=O)OCc1ccccc1)C(=O)OCC(=O)NCc1ccco1 (stereo not drawn) has a reported viability of 100

COc1ccc2c(C(F)(F)F)cc(=O)oc2c1C has a reported viability of 92

CC(C)C[C@H](NC(=O)[C@@H]1O[C@H]1C(=O)O)C(=O)NCCCCN=C(N)N has a reported viability of 100

O=C(NC1CCCCC1)c1ccc(S(=O)(=O)N2CCCCC2)cc1 has a reported viability of 80.5

COc1ccc2c(c1)[nH]c1c(=O)n(CCN(C)C)cnc12 has a reported viability of 105

CCOC(=O)N1CCN(c2c(N3CCN(c4ccccc4OC)CC3)c(=O)c2=O)CC1 has a reported viability of 94.5

CCCc1ccc(S(=O)(=O)NCCc2ccncc2)cc1 has a reported viability of 96

Oc1ccccc1C1=Nc2nc3ccccc3n2C(c2ccccc2)C1 (stereo not drawn) has a reported viability of 75.5

* * *

test: RAM signaling pathway blockade in yeast – S. cerevisiae, Pdr1DBD-CYC8 efflux-inhibited sensitized strain, primary screen (AID 1298);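 also: 0% = DMSO untreated cells without growth and 100% = 10 µM 1-NA-PP1 full growth; higher means more yeast growth rescued from 5-FOA killing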; settings: S. cerevisiae cbk1-as DSE1-URA3 strain, 5-FOA growth OD615, 2 d; at 50 µM; hits give high values
ASSAY_ENDPOINT: RAM network inhibition (%)
Express it in %; write the number only.

Example entries begin here.
INSERT INTO measurements (molecule, recorded_measurement) VALUES
  ('CCOCCCNC(=O)c1cn(C)c2ccc(S(=O)(=O)N(C)C3CCCCC3)cc2c1=O', -0.73),
  ('CCNc1nc(NCC)nc(OCCNS(=O)(=O)c2cc(C)ccc2C)n1', 1.53),
  ('CCOCCn1c(CN(Cc2ccccc2)Cc2ccccc2)nc2c1c(=O)n(C)c(=O)n2C', 5.44),
  ('Cc1nn(Cc2ccccc2)c(N)c1C#N', 5.62);

O=C(Nc1nnc(CC(=O)N2CCCC2)s1)c1cnccn1 has a reported RAM network inhibition of -0.94

COC(=O)c1ccccc1NC(=O)c1cc(C2CC2)on1 has a reported RAM network inhibition of 5.95

* * *

assay: reversal of MRP1-mediated doxorubicin resistance, pilot screen, H69AR cells, doxorubicin co-treatment (AID 601); conditions: H69AR cells + 2 uM doxorubicin, CellTiter-Glo, 72 h; at 10 µM; hits give high values
Sorting guide: entries reporting differential viability (reversal) beneath 10% go in the label 1 pile, the rest go in the label 0 pile.

INSERT INTO results (compound, assigned_label) VALUES
  ('CCOC(=O)Cc1c(C)c2c(O)cc(O)cc2oc1=O', 'label 0');

query: Please state whether differential viability (reversal) is below 10% for CC(Oc1ccc(Br)cc1)C(=O)N1CCc2ccccc21 (centres undefined)
result: label 1

query: Please state whether differential viability (reversal) is below 10% for Cc1cc(NCCN(C)C)n2nc(-c3cccs3)cc2n1
result: label 0

query: Please state whether differential viability (reversal) is below 10% for C=CCNS(=O)(=O)c1ccc2nsnc2c1
result: label 1

Values compiled from PubChem BioAssay.
